List of % of RMAS-Kd cells staining positive for surface H-2Kd values.
Target: T1, murine MHC class I molecule, H-2Kd (mouse, UniProt P01887 21-119; P01902 22-368, limits assumed)
T1 construct: whole, on cells; MHC class I molecule on the surface of RMAS-Kd cells
T1 sequence (MHC heavy, looked up): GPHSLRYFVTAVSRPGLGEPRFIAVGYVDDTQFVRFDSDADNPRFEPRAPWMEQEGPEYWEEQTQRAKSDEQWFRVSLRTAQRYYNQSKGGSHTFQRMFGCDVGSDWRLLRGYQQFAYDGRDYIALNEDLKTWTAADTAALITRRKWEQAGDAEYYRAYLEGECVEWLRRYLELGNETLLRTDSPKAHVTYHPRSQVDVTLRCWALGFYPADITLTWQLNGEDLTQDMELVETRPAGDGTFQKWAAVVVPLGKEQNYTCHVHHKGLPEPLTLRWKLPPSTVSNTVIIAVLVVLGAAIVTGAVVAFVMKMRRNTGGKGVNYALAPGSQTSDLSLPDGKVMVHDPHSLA
T1 sequence (b2m, looked up): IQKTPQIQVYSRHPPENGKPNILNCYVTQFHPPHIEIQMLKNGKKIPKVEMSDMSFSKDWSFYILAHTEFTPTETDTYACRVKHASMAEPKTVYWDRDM
Test: MHC class I stabilization assay on TAP-deficient RMAS-Kd cells, anti-H-2Kd-FITC, flow cytometry (background without peptide 6.07%)
Provide the reading as a plain figure in %.

// worked examples, % of RMAS-Kd cells staining positive for surface H-2Kd included
| Binder | Units of measure | Numeric value |
| --- | --- | --- |
| RLLPLLALL (Peptide derived from the mouse insulin protein) [TV3] | % | 70.1 |
| KLPAVLLIL [murine IAPP precursor peptide mTV1] | % | 64.2 |
| KYQAVTTTL (also called negative control peptide TUM) [TUM] | % | 66.5 |

Reported % of RMAS-Kd cells staining positive for surface H-2Kd, binder KYPAVLLIL (Modified version of TV1 with leucine to tyrosine at position 2; also called MTV2) [TV2] : ____
58.5
